# System: HeLa Kyoto;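 also: synchronized HeLa Kyoto cells, proteins quantified by TMT10plex mass spectrometry, three biological replicates, mitosis taken 0.5 h after nocodazole release, G1/S directly after double thymidine block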
# test-name: thermal stability score vs G1/S (z-score of summed log2 fold changes over temperatures); higher = more thermally stable than in G1/S
# condition-info: cell cycle stage: mitosis
Answer each item with its documented thermal stability score.
Give bare numbers.

Required: thermal stability score, one value per sequence below.
1. MREYKLVVLGSGGVGKSALTVQFVQGIFVEKYDPTIEDSYRKQVEVDCQQCMLEILDTAGTEQFTAMRDLYMKNGQGFALVYSITAQSTFNDLQDLREQILRVKDTEDVPMILVGNKCDLEDERVVGKEQGQNLARQWCNCAFLESSAKSKINVNEIFYDLVRQINRKTPVEKKKPKKKSCLLL [RAP1A]
2. MAATAREDGASGQERGQRGCEHYDRGCLLKAPCCDKLYTCRLCHDNNEDHQLDRFKVKEVQCINCEKIQHAQQTCEECSTLFGEYYCDICHLFDKDKKQYHCENCGICRIGPKEDFFHCLKCNLCLAMNLQGRHKCIENVSRQNCPICLEDIHTSRVVAHVLPCGHLLHRTCYEEMLKEGYRCPLCMHSALDMTRYWRQLDDEVAQTPMPSEYQNMTVDILCNDCNGRSTVQFHILGMKCKICESYNTAQAGGRRISLDQQ [RCHY1]
3. MSSEMLPAFIETSNVDKKQGINEDQEESQKPRLGEGCEPISKRQMKKLIKQKQWEEQRELRKQKRKEKRKRKKLERQCQMEPNSDGHDRKRVRRDVVHSTLRLIIDCSFDHLMVLKDIKKLHKQIQRCYAENRRALHPVQFYLTSHGGQLKKNMDENDKGWVNWKDIHIKPEHYSELIKKEDLIYLTSDSPNILKELDESKAYVIGGLVDHNHHKGLTYKQASDYGINHAQLPLGNFVKMNSRKVLAVNHVFEIILEYLETRDWQEAFFTILPQRKGAVPTDKACESASHDNQSVRMEEGGSDSDSSEEEYSRNELDSPHEEKQDKENHTESTVNSLPH [TRMT10A]

Ans.
-0.46
0.646
0.552

Batch request: thermal stability score for each of the following sequences.
1. MALKQISSNKCFGGLQKVFEHDSVELNCKMKFAVYLPPKAETGKCPALYWLSGLTCTEQNFISKSGYHQSASEHGLVVIAPDTSPRGCNIKGEDESWDFGTGAGFYVDATEDPWKTNYRMYSYVTEELPQLINANFPVDPQRMSIFGHSMGGHGALICALKNPGKYKSVSAFAPICNPVLCPWGKKAFSGYLGTDQSKWKAYDATHLVKSYPGSQLDILIDQGKDDQFLLDGQLLPDNFIAACTEKKIPVVFRLQEGYDHSYYFIATFITDHIRHHAKYLNA [ESD]
2. MGLTVSALFSRIFGKKQMRILMVGLDAAGKTTILYKLKLGEIVTTIPTIGFNVETVEYKNICFTVWDVGGQDKIRPLWRHYFQNTQGLIFVVDSNDRERVQESADELQKMLQEDELRDAVLLVFANKQDMPNAMPVSELTDKLGLQHLRSRTWYVQATCATQGTGLYDGLDWLSHELSKR [ARF5]

Ans.
1. -2.28
2. 1.14

Qu. Which thermal stability score value belongs to MAALKSWLSRSVTSFFRYRQCLCVPVVANFKKRCFSELIRPWHKTVTIGFGVTLCAVPIAQKSEPHSLSSEALMRRAVSLVTDSTSTFLSQTTYALIEAITEYTKAVYTLTSLYRQYTSLLGKMNSEEEDEVWQVIIGARAEMTSKHQEYLKLETTWMTAVGLSEMAAEAAYQTGADQASITARNHIQLVKLQVEEVHQLSRKAETKLAEAQIEELRQKTQEEGEERAESEQEAYLRED [DIABLO] ?
Ans. -1.02
